# Target Or Test System: Thromboxane A2 receptor (Homo sapiens, UniProt P21731)
# Sequence (P21731 whole entry): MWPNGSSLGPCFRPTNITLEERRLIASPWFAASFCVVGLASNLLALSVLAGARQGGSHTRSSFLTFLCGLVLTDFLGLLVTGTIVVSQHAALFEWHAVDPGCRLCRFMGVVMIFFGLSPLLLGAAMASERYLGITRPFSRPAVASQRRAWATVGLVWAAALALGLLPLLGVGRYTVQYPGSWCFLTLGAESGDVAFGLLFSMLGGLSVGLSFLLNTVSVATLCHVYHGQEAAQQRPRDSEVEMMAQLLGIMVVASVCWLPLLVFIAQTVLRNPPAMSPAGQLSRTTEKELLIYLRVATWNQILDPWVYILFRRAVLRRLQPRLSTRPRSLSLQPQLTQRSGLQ
# Assay Info: Thromboxane (TXA2) receptor antagonist activity using human platelet
# Type: functional
# Condition Parameters: read-out: pA2 (converted)
Endpoint Label: Kb (µM)
Give the value in µM but do not write µM after it.

Known results for molecules:
N#Cc1ccc([C@H]2OC[C@@H](C/C=C\CCC(=O)NCCNC(=O)CC/C=C\C[C@@H]3CO[C@H](c4ccc(C#N)cc4)O[C@@H]3c3ccccc3O)[C@@H](c3cccnc3)O2)cc1 | 10
N#Cc1ccc([C@H]2OC[C@@H](C/C=C\CCC(=O)O)[C@@H](c3cccnc3)O2)cc1 | 1.26
N#Cc1ccc([C@H]2OC[C@@H](C/C=C\CCC(=O)O)[C@@H](c3ccccc3O)O2)cc1 | 0.00501

Entry `N#Cc1ccc([C@H]2OC[C@@H](C/C=C\CCC(=O)Oc3ccccc3OC(=O)CC/C=C\C[C@@H]3CO[C@H](c4ccc(C#N)cc4)O[C@@H]3c3ccccc3O)[C@@H](c3cccnc3)O2)cc1` , Kb reported as 10

Entry `N#Cc1ccc([C@H]2OC[C@@H](C/C=C\CCC(=O)NCCCCCCNC(=O)CC/C=C\C[C@@H]3CO[C@H](c4ccc(C#N)cc4)O[C@@H]3c3ccccc3O)[C@@H](c3cccnc3)O2)cc1` , Kb reported as 10

The recorded Kb for `N#Cc1ccc([C@H]2OC[C@@H](C/C=C\CCC(=O)OCCCCCCOC(=O)CC/C=C\C[C@@H]3CO[C@H](c4ccc(C#N)cc4)O[C@@H]3c3ccccc3O)[C@@H](c3cccnc3)O2)cc1` is 10

Kb in this record for N#Cc1ccc([C@H]2OC[C@@H](C/C=C\CCC(=O)Oc3ccccc3OC(=O)CC/C=C\C[C@@H]3CO[C@H](c4ccccc4Cl)O[C@@H]3c3ccccc3O)[C@@H](c3cccnc3)O2)cc1 (stereo in doubt; 16 (-)) : 10

Lab book: Kb of `N#Cc1ccc([C@H]2OC[C@@H](C/C=C\CCC(=O)Oc3ccc(OC(=O)CC/C=C\C[C@@H]4CO[C@H](c5ccc(C#N)cc5)O[C@@H]4c4ccccc4O)cc3)[C@@H](c3cccnc3)O2)cc1` noted as 10
